Entry source: patent US20130315843A1

TARGET: human TRPV1 (Homo sapiens, UniProt Q8NER1)
Sequence (Q8NER1 whole entry): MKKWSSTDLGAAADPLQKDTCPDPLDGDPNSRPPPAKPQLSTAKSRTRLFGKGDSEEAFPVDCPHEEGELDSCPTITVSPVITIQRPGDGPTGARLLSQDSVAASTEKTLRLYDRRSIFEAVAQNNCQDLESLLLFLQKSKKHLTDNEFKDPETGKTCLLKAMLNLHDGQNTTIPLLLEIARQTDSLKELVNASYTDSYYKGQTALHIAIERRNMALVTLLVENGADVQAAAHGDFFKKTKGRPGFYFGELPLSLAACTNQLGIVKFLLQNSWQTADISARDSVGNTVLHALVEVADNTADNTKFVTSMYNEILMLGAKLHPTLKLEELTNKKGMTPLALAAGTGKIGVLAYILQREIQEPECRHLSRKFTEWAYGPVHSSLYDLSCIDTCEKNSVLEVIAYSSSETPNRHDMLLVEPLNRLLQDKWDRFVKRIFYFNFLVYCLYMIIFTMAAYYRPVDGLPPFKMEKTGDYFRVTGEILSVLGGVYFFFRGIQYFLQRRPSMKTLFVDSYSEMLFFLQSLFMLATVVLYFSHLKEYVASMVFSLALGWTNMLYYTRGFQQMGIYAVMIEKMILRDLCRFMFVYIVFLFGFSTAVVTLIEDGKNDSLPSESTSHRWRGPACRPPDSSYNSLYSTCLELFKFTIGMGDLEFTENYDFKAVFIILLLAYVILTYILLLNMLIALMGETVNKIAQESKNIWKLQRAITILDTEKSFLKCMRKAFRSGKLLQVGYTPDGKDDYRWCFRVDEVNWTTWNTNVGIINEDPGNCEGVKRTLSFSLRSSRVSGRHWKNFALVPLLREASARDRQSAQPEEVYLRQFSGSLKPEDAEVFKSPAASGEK
ASSAY PROTOCOL: FLIPR Ca2+ assay, reduction of L-Menthol activation of TRPV1
CONDITION: read-out: % Reduction of L-Menthol TRPV1 Activation
# inhibition at 100 µM annotations

{"COMPOUND": "CCC/C=C/COC(=O)CC [propionic acid trans-2-hexen-1-yl ester]", "inhibition at 100 µM / %": 39.7}
{"COMPOUND": "Cc1ccc(C(C)C)c(O)c1", "inhibition at 100 µM / %": 30.3}
{"COMPOUND": "Cc1ccc(C(C)C)cc1", "inhibition at 100 µM / %": 40.5}

---

# % Reduction of L-Menthol TRPV1 Activation annotations
TARGET: human TRPV1 (Homo sapiens)
ASSAY PROTOCOL: FLIPR Ca2+ assay, reduction of L-Menthol activation of TRPV1
CONDITION: antagonist 100 μM against 1 mM L-Menthol
VALUE KIND: % Reduction of L-Menthol TRPV1 Activation (%)

{"COMPOUND": "[Cu+].[I-] [copper(i) iodide]", "UNIT TEXT": "%", "OBS VALUE": 89.8}
{"COMPOUND": "C/C=C(/C)C1CCC(C)(C)O1 (stereo not drawn) [ocimene quintoxide]", "UNIT TEXT": "%", "OBS VALUE": 34.7}
{"COMPOUND": "CC(C)=CCCC(C)CCO (racemic) [(+−)-beta;-citronellol]", "UNIT TEXT": "%", "OBS VALUE": 22.5}

---

TARGET: human TRPV1 (Homo sapiens, UniProt Q8NER1)
ASSAY PROTOCOL: FLIPR Ca2+ assay, reduction of L-Menthol activation of TRPV1
CONDITION: antagonist 100 μM against 1 mM L-Menthol
Counter-ions that a name gives are not always drawn.

{"MOLECULE": "C=C1CC/C=C(\\C)CC[C@@H]2[C@@H]1CC2(C)C", "Average Ca2+ Counts [Counts]": 2744.5}
{"MOLECULE": "CCC/C=C/COC(=O)CC [propionic acid trans-2-hexen-1-yl ester]", "Average Ca2+ Counts [Counts]": 1128.3}
{"MOLECULE": "COc1ccc(OC)cc1", "Average Ca2+ Counts [Counts]": 3633.0}
{"MOLECULE": "CCCCCCCCO", "Average Ca2+ Counts [Counts]": 1442.3}
{"MOLECULE": "CC(S)C(C)S (stereo not shown)", "Average Ca2+ Counts [Counts]": 586.0}
{"MOLECULE": "O=C(O)CCC(=O)O", "Average Ca2+ Counts [Counts]": 1045.0}
{"MOLECULE": "CC1OCCC1=O (stereo not shown) [2-methyltetrahydro-3-furanone]", "Average Ca2+ Counts [Counts]": 993.7}
{"MOLECULE": "COc1ccc(COC=O)cc1 [4-methoxybenzyl formate]", "Average Ca2+ Counts [Counts]": 1399.0}
{"MOLECULE": "Cc1cnc(C)cn1", "Average Ca2+ Counts [Counts]": 1040.0}
{"MOLECULE": "COc1nccnc1CC(C)C", "Average Ca2+ Counts [Counts]": 4020.0}
{"MOLECULE": "C/C=C(\\C)C(=O)OC(C)C [isopropyl tiglate]", "Average Ca2+ Counts [Counts]": 4497.5}
{"MOLECULE": "O=COCc1ccccc1 [benzyl formate]", "Average Ca2+ Counts [Counts]": 2923.5}
{"MOLECULE": "CCCC/C=C\\CCO [cis-3-octen-1-ol]", "Average Ca2+ Counts [Counts]": 1424.7}
{"MOLECULE": "CC(=O)c1ccccc1O [2′-hydroxyacetophenone]", "Average Ca2+ Counts [Counts]": 1083.3}
{"MOLECULE": "CC(=O)OCC1CCCO1 (stereo not shown) [tetrahydrofurfuryl acetate]", "Average Ca2+ Counts [Counts]": 1269.3}
{"MOLECULE": "CCC(C)C1CCCCC1=O (stereo not shown)", "Average Ca2+ Counts [Counts]": 1352.3}
{"MOLECULE": "CCCCCCCCCCCC(=O)OC [methyl laurate]", "Average Ca2+ Counts [Counts]": 1199.7}
{"MOLECULE": "COc1cc(C)cc(OC)c1O", "Average Ca2+ Counts [Counts]": 1292.3}
{"MOLECULE": "CCc1occc(=O)c1O [2-ethyl-3-hydroxy-4h-pyran-4-one]", "Average Ca2+ Counts [Counts]": 1095.3}
{"MOLECULE": "O=C(CCc1ccc(O)cc1)c1c(O)cc(O)cc1O", "Average Ca2+ Counts [Counts]": 4616.5}
{"MOLECULE": "Cc1ccc(C(C)C)cc1", "Average Ca2+ Counts [Counts]": 1112.7}
{"MOLECULE": "CCCCCCCCSC [methyl n-octyl sulfide]", "Average Ca2+ Counts [Counts]": 1120.3}
{"MOLECULE": "CCCOC(=O)CCCCC(=O)OCCC", "Average Ca2+ Counts [Counts]": 2964.0}
{"MOLECULE": "CCCCCCCCCCCCCCCCOC(=O)C(C)O (stereo not shown) [hexadecyl lactate]", "Average Ca2+ Counts [Counts]": 1047.0}
{"MOLECULE": "CCOC(=O)C1OC1c1ccccc1 (stereo not shown) [ethyl 3-phenylglycidate]", "Average Ca2+ Counts [Counts]": 1987.0}
{"MOLECULE": "COc1cc(/C=C/C(=O)O)ccc1O", "Average Ca2+ Counts [Counts]": 1242.0}
{"MOLECULE": "CCOC(=O)C(Cc1ccccc1)C(C)=O (stereo not shown) [ethyl 2-benzylacetoacetate]", "Average Ca2+ Counts [Counts]": 1548.3}
{"MOLECULE": "C=C[C@H]1C[N@@]2CC[C@H]1C[C@H]2[C@H](O)c1ccnc2ccc(OC)cc12 [quinine hydrochloride dihydrate]", "Average Ca2+ Counts [Counts]": 1505.3}
{"MOLECULE": "CC(=O)c1nccs1", "Average Ca2+ Counts [Counts]": 3569.5}
{"MOLECULE": "CCCCC/C=C/CCC(=O)OCC [ethyl trans-4-decenoate]", "Average Ca2+ Counts [Counts]": 1454.3}
{"MOLECULE": "CCC(C)SSC(C)CC (stereo not shown) [sec-butyl disulfide]", "Average Ca2+ Counts [Counts]": 3652.0}
{"MOLECULE": "C/C=C(/C)C1CCC(C)(C)O1 (stereo not shown) [ocimene quintoxide]", "Average Ca2+ Counts [Counts]": 1236.3}
{"MOLECULE": "C1CNCCN1", "Average Ca2+ Counts [Counts]": 3405.0}
{"MOLECULE": "CCCCOC(=O)c1ccc(O)cc1 [butyl 4-hydroxybenzoate]", "Average Ca2+ Counts [Counts]": 319.0}
